- target_desc: delta opioid receptor (Homo sapiens)
- assay_info: Stimulation of [35S]GTPγS binding (coupling to G proteins)
- Type: biochemical
- Parameters: expressed in transfected cells; host or cells: transfected cells
- details: delta EC50, Table 8
reported_metric: EC50 (nM)
Entry rule: numbers only, all in nM.

Exercise: GET /values?readout=EC50&item= CN1CCC23c4c5ccc(O)c4OC2C(OC2O[C@H](C(=O)O)[C@@H](O)[C@H](O)[C@H]2O)C=CC3C1C5 (stereo partly shown) [M6G, Morphine-6-glucuronide, reference compound]
Solution: 190

---

Listing: Emax of selected compounds
- target_desc: delta opioid receptor (Homo sapiens, UniProt P41143)
- Sequence (P41143 whole entry): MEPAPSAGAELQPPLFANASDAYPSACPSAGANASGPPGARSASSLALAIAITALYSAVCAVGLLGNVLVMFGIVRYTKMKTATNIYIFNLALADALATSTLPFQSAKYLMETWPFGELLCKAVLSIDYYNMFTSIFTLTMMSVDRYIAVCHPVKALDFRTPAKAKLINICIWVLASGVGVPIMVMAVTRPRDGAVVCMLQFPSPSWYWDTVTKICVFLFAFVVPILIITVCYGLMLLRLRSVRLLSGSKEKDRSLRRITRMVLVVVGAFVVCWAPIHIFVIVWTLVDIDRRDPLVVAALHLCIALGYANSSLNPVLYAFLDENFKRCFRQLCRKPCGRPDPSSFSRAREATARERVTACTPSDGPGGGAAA
- assay_info: Stimulation of [35S]GTPγS binding (coupling to G proteins)
- Type: biochemical
- Set-up: expressed in transfected cells; host or cells: transfected cells
- details: Table 8
In your response, the unit should come after the numeric value.

{"columns": ["compound", "target_desc", "Emax"],
 "data": [
  ["O=C(Cc1cccs1)NC1CCC2(O)C3Cc4ccc(O)c5c4C2(CCN3CC2CC2)C1O5 (centres unmarked) [6e]", "delta opioid receptor (Homo sapiens, UniProt P41143)", "88.5%"],
  ["O=C(CC1OC(CO)C(O)C(O)C1O)NC1CCC2(O)C3Cc4ccc(O)c5c4C2(CCN3CC2CC2)C1O5 (centres unmarked) [6a]", "delta opioid receptor (Homo sapiens, UniProt P41143)", "43.1%"],
  ["COc1cccc(C(=O)NC2CCC3(O)C4Cc5ccc(O)c6c5C3(CCN4CC3CC3)C2O6)c1 (centres unmarked) [6d]", "delta opioid receptor (Homo sapiens, UniProt P41143)", "98.7%"],
  ["CN(C)c1cccc(C(=O)NC2CCC3(O)C4Cc5ccc(O)c6c5C3(CCN4CC3CC3)C2O6)c1 (centres unmarked) [6c]", "delta opioid receptor (Homo sapiens, UniProt P41143)", "100%"]
]}

Below: the item to evaluate.
Exercise: GET /values?readout=Emax&item= O=C(C[C@@H]1O[C@H](COCc2ccccc2)[C@@H](OCc2ccccc2)[C@H](OCc2ccccc2)[C@H]1OCc1ccccc1)NC1CC[C@@]2(O)[C@H]3Cc4ccc(O)c5c4[C@@]2(CCN3CC2CC2)[C@H]1O5 (some centres unmarked) [compound 5]
Solution: 20.5%

---

- target_desc: kappa opioid receptor (Homo sapiens, UniProt P41145)
- Sequence (P41145 whole entry): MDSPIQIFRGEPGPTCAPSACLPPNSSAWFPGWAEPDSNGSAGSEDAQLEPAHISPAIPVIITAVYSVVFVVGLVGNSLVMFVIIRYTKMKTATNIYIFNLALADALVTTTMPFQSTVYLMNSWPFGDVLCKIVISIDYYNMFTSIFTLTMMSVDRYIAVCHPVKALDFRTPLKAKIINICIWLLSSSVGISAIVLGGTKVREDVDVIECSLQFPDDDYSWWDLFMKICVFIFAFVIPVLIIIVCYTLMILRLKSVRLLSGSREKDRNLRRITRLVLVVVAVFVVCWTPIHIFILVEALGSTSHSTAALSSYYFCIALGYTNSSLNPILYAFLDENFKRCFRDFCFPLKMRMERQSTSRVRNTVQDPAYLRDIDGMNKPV
- assay_info: biochemical
- Type: binding
- Parameters: expressed in transfected cells; host or cells: transfected cells
- details: Table 1; read-out: Ki κ
Please use met for Ki under 100 nM and not met for everything else, ties included.

Some solved cases for reference:
{"columns": ["compound", "label"],
 "data": [
  ["CN1CCC23c4c5ccc(O)c4OC2C(NC(=O)c2cccc([N+](=O)[O-])c2)C=CC3C1C5 (stereo not drawn) [13f, 6β-(3′Nitro)benzamidomorphine]", "met"],
  ["COC(=O)[C@H]1OC(CC(=O)NC2C=CC3C4Cc5ccc(O)c6c5C3(CCN4C)C2O6)[C@H](OC(C)=O)[C@@H](OC(C)=O)[C@@H]1OC(C)=O (stereo in doubt)", "met"],
  ["CN1CCC23c4c5ccc(O)c4OC2C(NC(=O)CC2O[C@H](C(=O)O)[C@@H](O)[C@H](O)[C@H]2O)C=CC3C1C5 (stereo partly drawn) [11a, 6β-(α-Glucuronosyl)acetamidomorphine]", "not met"],
  ["COC(=O)c1cccc(C(=O)NC2C=CC3C4Cc5ccc(O)c6c5C3(CCN4C)C2O6)c1 (stereo not drawn) [13e, 6β-(3′-Carbomethoxy)benzamidomorphine]", "met"],
  ["COc1ccc2c3c1OC1C(SC4O[C@H](COC(C)=O)[C@@H](OC(C)=O)[C@H](OC(C)=O)[C@H]4OC(C)=O)C=CC4C(C2)N(C)CCC341 (stereo partly drawn)", "not met"]
]}

Next item in the queue.
Exercise: Is Ki of CN1CCC23c4c5ccc(O)c4OC2C(OC2O[C@H](C(=O)O)[C@@H](O)[C@H](O)[C@H]2O)C=CC3C1C5 (stereo partly drawn) [M6G, Morphine-6-glucuronide, reference compound] strictly below 100 nM?
Solution: not met

---

Listing: Ki of selected compounds
- target_desc: kappa opioid receptor (Homo sapiens)
- assay_info: biochemical
- Format: binding
- Set-up: expressed in transfected cells; host or cells: transfected cells
- details: Table 7, CHO membranes; read-out: Ki kappa
Entry rule: numbers only, all in µM.

{"columns": ["compound", "reported_metric", "observed_measurement"],
 "data": [
  ["O=C(C[C@@H]1O[C@H](COCc2ccccc2)[C@@H](OCc2ccccc2)[C@H](OCc2ccccc2)[C@H]1OCc1ccccc1)NC1CC[C@@]2(O)[C@H]3Cc4ccc(O)c5c4[C@@]2(CCN3CC2CC2)[C@H]1O5 (some centres unmarked)", "Ki", 0.039]
]}

Below: the item to evaluate.
Exercise: GET /values?readout=Ki&item= O=C(CC1OC(CO)C(O)C(O)C1O)NC1CCC2(O)C3Cc4ccc(O)c5c4C2(CCN3CC2CC2)C1O5 (centres unmarked)
Solution: 0.0104

---

- assay_info: Metabolic stability in human liver pooled S9
- details: human, s9, pH 7.4
Listing: half-life at 0.1 mM of selected compounds
Entry rule: numbers only, all in h.

Example compounds with recorded half-life at 0.1 mM:
{"columns": ["compound", "half-life at 0.1 mM [h]"],
 "data": [
  ["CC(=O)OC[C@H]1OC(SC2C=CC3C4Cc5ccc(OC(C)=O)c6c5C3(CCN4C)C2O6)[C@H](OC(C)=O)[C@@H](OC(C)=O)[C@@H]1OC(C)=O (stereo partly drawn) [3c]", 0.196],
  ["COc1ccc2c3c1OC1C(SC4O[C@H](COC(C)=O)[C@@H](OC(C)=O)[C@H](OC(C)=O)[C@H]4OC(C)=O)C=CC4C(C2)N(C)CCC341 (stereo partly drawn) [3f]", 10.5]
]}

Exercise: GET /values?readout=half-life at 0.1 mM&item= COC(=O)c1cccc(C(=O)NC2C=CC3C4Cc5ccc(O)c6c5C3(CCN4C)C2O6)c1 (stereo not drawn) [13e, 6β-(3′-Carbomethoxy)benzamidomorphine]
Solution: 3.38

---

- assay_info: Metabolic stability in rat liver microsomes
- details: rat, microsomes, pH 7.4
reported_metric: half-life at 0.1 mM (min)
Entry rule: numbers only, all in min.

Exercise: GET /values?readout=half-life at 0.1 mM&item= C=C1CC[C@@]2(O)[C@H]3Cc4ccc(O)c5c4[C@@]2(CCN3CC2CC2)[C@H]1O5 [nalmefene, reference compound]
Solution: 25

---

Listing: half-life at 0.1 mM of selected molecules
- assay_info: Metabolic stability in mouse liver microsomes
- details: mouse, microsomes, pH 7.4
Entry rule: numbers only, all in h.

Example molecules with recorded half-life at 0.1 mM:
{"columns": ["molecule", "half-life at 0.1 mM (h)"],
 "data": [
  ["C=C1CC[C@@]2(O)[C@H]3Cc4ccc(O)c5c4[C@@]2(CCN3CC2CC2)[C@H]1O5 [nalmefene, reference compound]", 0.567],
  ["CN1CCC23c4c5ccc(O)c4OC2C(NC(=O)c2cccc([N+](=O)[O-])c2)C=CC3C1C5 (stereo not drawn) [13f, 6β-(3′Nitro)benzamidomorphine]", 18.7],
  ["CN1CCC23c4c5ccc(O)c4OC2C(NC(=O)Cc2cccs2)C=CC3C1C5 (stereo not drawn) [13h, 6β-(Thiophen-2′-yl)acetamidomorphine]", 11.2],
  ["CC(=O)OC[C@H]1OC(SC2C=CC3C4Cc5ccc(OC(C)=O)c6c5C3(CCN4C)C2O6)[C@H](OC(C)=O)[C@@H](OC(C)=O)[C@@H]1OC(C)=O (some centres unmarked) [3c]", 0.235],
  ["COc1ccc2c3c1OC1C(SC4O[C@H](COC(C)=O)[C@@H](OC(C)=O)[C@H](OC(C)=O)[C@H]4OC(C)=O)C=CC4C(C2)N(C)CCC341 (some centres unmarked) [3f]", 8.2]
]}

Exercise: GET /values?readout=half-life at 0.1 mM&item= CC(=O)OC[C@H]1OC(SC2C=CC3C4Cc5ccc(O)c6c5C3(CCN4C)C2O6)[C@H](OC(C)=O)[C@@H](OC(C)=O)[C@@H]1OC(C)=O (some centres unmarked) [3d]
Solution: 1.58

Exercise: GET /values?readout=half-life at 0.1 mM&item= COc1ccc(CC(=O)NC2C=CC3C4Cc5ccc(O)c6c5C3(CCN4C)C2O6)cc1 (stereo not drawn) [13b, 6β-(4-Methoxyphenyl)acetamidomorphine]
Solution: 5.17

---

- target_desc: delta opioid receptor (Homo sapiens, UniProt P41143)
- assay_info: Stimulation of [35S]GTPγS binding (coupling to G proteins)
- Format: biochemical
- Design: expressed in transfected cells; host or cells: transfected cells
- details: Table 2
Listing: Emax of selected compounds
Entry rule: numbers only, all in %.

{"columns": ["compound", "target_desc", "Emax [%]"],
 "data": [
  ["CN1CCC23c4c5ccc(O)c4OC2C(NC(=O)c2ccccc2)C=CC3C1C5 (stereo not drawn) [13d, 60-Benzamidomorphine]", "delta opioid receptor (Homo sapiens, UniProt P41143)", 61.3],
  ["CN1CCC23c4c5ccc(O)c4OC2C(NC(=O)c2cccc(C(=O)O)c2)C=CC3C1C5 (stereo not drawn)", "delta opioid receptor (Homo sapiens, UniProt P41143)", 69.5]
]}

Below: the item to evaluate.
Exercise: GET /values?readout=Emax&item= CN1CCC23c4c5ccc(O)c4OC2C(SC2O[C@H](C(=O)O)[C@@H](O)[C@H](O)[C@H]2O)C=CC3C1C5 (stereo partly drawn) [4a, Morphine-6β-S-D-glucuronide]
Solution: 78.7
